system: SC27B; experiment: qHTS profiling for inhibitors of Plasmodium falciparum proliferation (AID 504749); note: nearly all actives have a fitted effect of over 60% in size; settings: P. falciparum in erythrocytes, SYBR Green DNA, 72 h; series mostly up to 28.7 µM
Inconclusive results are not listed. The source made the active and inactive calls. Calls come from the whole dose curve; as a rule, active = well fitted inhibition curve with a large enough effect; inconclusive = small, poorly fitted or top-dose-only effect; inactive = flat fitted curve, though single readings scatter.
Assay Metric: outcome

> print(dat)
                                   compound  assay.metric       val
1  CC(CSC(=O)c1ccccc1)C(=O)N1C[C@@H](Sc2ccccc2)C[C@H]1C(=O)O (stereo partly drawn)       outcome  inactive
2           NNC(=O)CP(=O)(c1ccccc1)c1ccccc1       outcome  inactive
3        CCN(CC)CCOC(=O)C(c1ccccc1)c1ccccc1       outcome  inactive
